System: HAP1 MTAP-intact
PROTOCOL_TEXT: SDMA in-cell western assay, HAP1 MTAP-intact cell line
Format: cell-based
CONDITION: Homo sapiens
Form field: IC50 (one value per entry).
MEASUREMENT_NAME: IC50

COMPOUND: O=C(NC[C@H](O)CN1CCc2cc(OCc3cnco3)ccc2C1)c1cc(NC2CCC2)nc(N2CCN(C(=O)C3CC3)CC2)c1 [Compound 378]
OBSERVED_VALUE: < 1 µM
--
COMPOUND: CC(=O)N1CCC(Nc2cncc(C(=O)NC[C@H](O)CN3CCc4cc(OCc5cnco5)ccc4C3)c2)CC1 [Compound 549]
OBSERVED_VALUE: ≥ 10 µM
--
COMPOUND: Cc1ncoc1COc1ccc2c(c1C)CCN(C[C@@H](O)CNC(=O)c1cc(NC3COC3)nc(N3CCN(C(C)(C)C)CC3)n1)C2 [Compound 435]
OBSERVED_VALUE: ≥ 10 µM

###

TEST_SYSTEM: PRMT5 (Homo sapiens, UniProt O14744)
Construct: purchased Viva (custom protein)
Sequence (O14744 whole entry): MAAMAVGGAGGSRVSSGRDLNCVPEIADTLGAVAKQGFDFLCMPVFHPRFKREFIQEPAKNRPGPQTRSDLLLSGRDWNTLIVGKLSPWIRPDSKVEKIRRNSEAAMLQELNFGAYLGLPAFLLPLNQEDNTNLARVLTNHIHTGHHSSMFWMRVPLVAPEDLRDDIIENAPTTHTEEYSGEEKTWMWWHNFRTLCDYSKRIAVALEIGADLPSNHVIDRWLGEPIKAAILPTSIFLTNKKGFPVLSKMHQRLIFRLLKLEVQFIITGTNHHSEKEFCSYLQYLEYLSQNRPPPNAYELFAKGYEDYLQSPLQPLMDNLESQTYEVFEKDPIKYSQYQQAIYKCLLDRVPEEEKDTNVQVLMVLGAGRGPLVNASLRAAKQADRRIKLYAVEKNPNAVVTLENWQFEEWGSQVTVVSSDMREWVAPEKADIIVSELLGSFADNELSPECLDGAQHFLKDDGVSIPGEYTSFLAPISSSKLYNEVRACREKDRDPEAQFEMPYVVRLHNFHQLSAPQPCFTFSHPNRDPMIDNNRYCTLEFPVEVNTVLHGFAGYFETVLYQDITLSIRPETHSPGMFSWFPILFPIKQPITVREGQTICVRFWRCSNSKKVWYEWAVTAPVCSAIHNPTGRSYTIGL
Sequence (Q9BQA1 whole entry partner): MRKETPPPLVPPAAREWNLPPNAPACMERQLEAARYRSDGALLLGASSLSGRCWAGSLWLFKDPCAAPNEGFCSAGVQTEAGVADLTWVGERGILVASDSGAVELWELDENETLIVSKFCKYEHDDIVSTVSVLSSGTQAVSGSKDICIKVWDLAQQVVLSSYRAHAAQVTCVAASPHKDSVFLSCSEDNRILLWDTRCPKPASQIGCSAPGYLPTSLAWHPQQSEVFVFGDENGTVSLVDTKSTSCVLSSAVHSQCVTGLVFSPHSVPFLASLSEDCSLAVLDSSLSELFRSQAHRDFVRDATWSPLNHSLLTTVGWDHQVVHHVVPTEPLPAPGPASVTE
PROTOCOL_TEXT: PRMT5 IC50 assay in the presence of SAM as cofactor
Assay type: biochemical

COMPOUND: Cc1ncoc1COc1ccc2c(c1Cl)CCN(C[C@@H](O)CNC(=O)c1cccc(NC3CCC3)c1)C2
IC50: 50 to 500 nM

COMPOUND: O=C(NC[C@H](O)CN1CCc2cc(OCc3cnco3)ccc2C1)c1cncc(NC2CCOCC2)c1
IC50: 500 to 5000 nM

COMPOUND: Cc1c(OCc2cnco2)ccc2c1CCN(C[C@@H](O)CNC(=O)c1cc(NC3CCCC3)ncn1)C2
IC50: 500 to 5000 nM

COMPOUND: CCC(=O)N1CC(Nc2cc(C(=O)NC[C@H](O)CN3CCc4c(ccc(OCc5cnco5)c4C)C3)ccn2)C1
IC50: 50 to 500 nM

COMPOUND: O=C(NC[C@H](O)CN1CCc2c(ccc(OCc3cnco3)c2Cl)C1)c1ccnc(NC2CCC(F)CC2)c1 (stereo partly shown)
IC50: 50 to 500 nM

COMPOUND: Cc1c(OCc2cnco2)ccc2c1CCN(C[C@@H](O)CNC(=O)c1ccnc(Nc3cccnc3)c1)C2
IC50: 500 to 5000 nM

COMPOUND: CC(=O)N1CC(Nc2cc(C(=O)NC[C@H](O)CN3CCc4c(ccc(OCc5ocnc5C)c4C)C3)nc(C(C)C)n2)C1
IC50: 50 to 500 nM

COMPOUND: O=C(NC[C@H](O)CN1CCc2c(ccc(OCc3cnco3)c2Cl)C1)c1ccnc(NC2CCC(F)C2)c1 (stereo partly shown)
IC50: 50 to 500 nM

COMPOUND: CC(=O)N1CC(Nc2cc(C(=O)NC[C@H](O)CN3CCc4cc(OCc5cnco5)ccc4C3)nc(N3CCOCC3)n2)C1
IC50: 50 to 500 nM

COMPOUND: O=C(NC[C@H](O)CN1CCc2cc(OCc3cnco3)cc(F)c2C1)c1ccnc(NC2CCC2)c1
IC50: 500 to 5000 nM

COMPOUND: O=C(NC[C@H](O)CN1CCc2cc(OCc3cnco3)ccc2C1)c1cc(NC2CCC2)ncn1
IC50: 500 to 5000 nM

COMPOUND: O=C(NC[C@H](O)CN1CCc2cc(OCc3cnco3)ccc2C1)c1cc(NC2CCOCC2)ccn1
IC50: 500 to 5000 nM

COMPOUND: CC(C)C(=O)N1CCN(c2cc(C(=O)NC[C@H](O)CN3CCc4cc(OCc5cnco5)ccc4C3)cc(NC3CCC3)n2)CC1
IC50: 50 to 500 nM

COMPOUND: Cc1c(OCc2cnco2)ccc2c1CCN(C[C@@H](O)CNC(=O)c1cc(N[C@H]3CC[C@H](C(=O)N4CCCCC4)CC3)ncn1)C2
IC50: 50 to 500 nM

COMPOUND: CC(C)N1CCN(c2cc(C(=O)NC[C@H](O)CN3CCc4c(ccc(OCc5cnco5)c4Cl)C3)cc(NC3CCC3)n2)CC1
IC50: 50 to 500 nM

COMPOUND: Cc1ncoc1COc1ccc2c(c1)CCN(C[C@@H](O)CNC(=O)c1cc(NC3CCC3)nc(N3CCN(C(=O)C4CC4)CC3)c1)C2
IC50: 50 to 500 nM

COMPOUND: CC(=O)N1CCC(Nc2cc(C(=O)NC[C@H](O)CN3CCc4c(ccc(OCc5cnco5)c4C)C3)ccn2)CC1
IC50: 50 to 500 nM

COMPOUND: Cc1c(OCc2cnn[nH]2)ccc2c1CCN(C[C@@H](O)CNC(=O)c1ccnc(NC3CCC3)c1)C2
IC50: 500 to 5000 nM

COMPOUND: CC(=O)N1CCC(Nc2cccc(C(=O)NC[C@H](O)CN3CCc4cc(OCc5cnco5)ccc4C3)c2)CC1
IC50: 50 to 500 nM

COMPOUND: CCC(=O)N1CCN(c2nc(NC3COC3)cc(C(=O)NC[C@H](O)CN3CCc4cc(OCc5ocnc5C)ccc4C3)n2)CC1
IC50: 50 to 500 nM

COMPOUND: CCN1CCN(c2nc(NC3COC3)cc(C(=O)NC[C@H](O)CN3CCc4c(ccc(OCc5cnco5)c4Cl)C3)n2)CC1
IC50: 50 to 500 nM

COMPOUND: Cc1ncoc1COc1ccc2c(c1Cl)CCN(C[C@@H](O)CNC(=O)c1cc(NC3CCCCC3)ncn1)C2
IC50: 50 to 500 nM

COMPOUND: CCCC(=O)N1CC(Nc2cc(C(=O)NC[C@H](O)CN3CCc4cc(OCc5cnco5)ccc4C3)ccn2)C1
IC50: 50 to 500 nM

COMPOUND: O=C(NC[C@H](O)CN1CCc2c(ccc(OCc3cnco3)c2Cl)C1)c1cccc(NC2CCC2)c1
IC50: 500 to 5000 nM

COMPOUND: Cc1ncoc1COc1ccc2c(c1C)CCN(C[C@@H](O)CNC(=O)c1cc(NC3CCC3)nc(OCCN(C)C)c1)C2
IC50: 50 to 500 nM

COMPOUND: CC(=O)N1CCC(Nc2cc(C(=O)NC[C@H](O)CN3CCc4cc(OCc5ocnc5C)ccc4C3)ccn2)CC1
IC50: 50 to 500 nM

COMPOUND: O=C1N[C@H]2[C@H](CS[C@H]2CCCCC(=O)N2CCC(Nc3cc(C(=O)NC[C@H](O)CN4CCc5cc(OCc6cnco6)ccc5C4)ncn3)CC2)N1
IC50: 50 to 500 nM

COMPOUND: Cc1ncoc1COc1ccc2c(c1C)CCN(C[C@@H](O)CNC(=O)c1cccc(NC3COC3)c1)C2
IC50: 500 to 5000 nM

###

Test system: HAP1 MTAP-intact
PROTOCOL_TEXT: SDMA in-cell western assay, HAP1 MTAP-intact cell line
Type: cell-based
CONDITION: Homo sapiens
pIC50: −log10 of the molar value.
Each record here notes measured pIC50.

COMPOUND: CCC(=O)N1CCN(c2nc(NC3COC3)cc(C(=O)NC[C@H](O)CN3CCc4cc(OCc5cnco5)ccc4C3)n2)CC1 [Compound 309]
pIC50: ≤ 5.00
//
COMPOUND: O=C(NC[C@H](O)CN1CCc2cc(OCc3cnco3)ccc2C1)c1ccnc(NC2CCCC2)c1 [Compound 407]
pIC50: > 6.00
//
COMPOUND: COCCN(C)c1cc(C(=O)NC[C@H](O)CN2CCc3c(ccc(OCc4ocnc4C)c3C)C2)cc(NC2CCN(C(C)=O)CC2)n1 [Compound 592]
pIC50: ≤ 5.00
//
COMPOUND: Cc1c(OCc2cnco2)ccc2c1CCN(C[C@@H](O)CNC(=O)c1ccnc(NC3CN(C(=O)C(C)C)C3)c1)C2 [Compound 550]
pIC50: ≤ 5.00
//
COMPOUND: CC(=O)N1CCC(Nc2cc(C(=O)NC[C@H](O)CN3CCc4c(ccc(OCc5ocnc5C)c4C)C3)cc(N3CCN(C(C)=O)CC3)n2)CC1 [Compound 590]
pIC50: ≤ 5.00
//
COMPOUND: CCC(=O)N1CCC(Nc2cc(C(=O)NC[C@H](O)CN3CCc4cc(OCc5cnco5)ccc4C3)ccn2)CC1 [Compound 460]
pIC50: 5.00 to 6.00
//
COMPOUND: CC(=O)N1CCC(Nc2cc(C(=O)NC[C@H](O)CN3CCc4cc(OCc5cnco5)ccc4C3)ccn2)CC1 [Compound 471]
pIC50: 5.00 to 6.00

###

TEST_SYSTEM: PRMT5 (Homo sapiens)
Construct: purchased Viva (custom protein)
PROTOCOL_TEXT: PRMT5 IC50 assay with no cofactor
Type: biochemical

STRUCTURE_SMILES_STRING: CCN(C)c1cc(C(=O)NC[C@H](O)CN2CCc3c(ccc(OCc4cnco4)c3Cl)C2)cc(NC2CCC2)n1
TEST_SYSTEM: PRMT5 (Homo sapiens)
IC50: ≥ 5 µM
--
STRUCTURE_SMILES_STRING: CC(=O)N1CC(Nc2cc(C(=O)NC[C@H](O)CN3CCc4c(ccc(OCc5ocnc5C)c4C)C3)nc(C(C)(C)C)n2)C1
TEST_SYSTEM: PRMT5 (Homo sapiens)
IC50: ≥ 5 µM
--
STRUCTURE_SMILES_STRING: Cc1ncoc1COc1ccc2c(c1C)CCN(C[C@@H](O)CNC(=O)c1ccc(OC3CCN(Cc4ccncc4)CC3)cc1)C2
TEST_SYSTEM: PRMT5 (Homo sapiens)
IC50: 0.5 to 5 µM
--
STRUCTURE_SMILES_STRING: CC(=O)N1CC(Nc2cc(C(=O)NC[C@H](O)CN3CCc4cc(OCc5cnco5)ccc4C3)ccn2)C1
TEST_SYSTEM: PRMT5 (Homo sapiens)
IC50: 0.5 to 5 µM
--
STRUCTURE_SMILES_STRING: O=C(NC[C@H](O)CN1CCc2cc(OCc3cnco3)ccc2C1)c1ccnc(NC2CN(C(=O)C3CCC3)C2)c1
TEST_SYSTEM: PRMT5 (Homo sapiens)
IC50: 0.5 to 5 µM
--
STRUCTURE_SMILES_STRING: Cc1ncoc1COc1cc(F)c2c(c1)CCN(C[C@@H](O)CNC(=O)c1ccnc(NC3CCC3)c1)C2
TEST_SYSTEM: PRMT5 (Homo sapiens)
IC50: ≥ 5 µM
--
STRUCTURE_SMILES_STRING: CC(=O)N1CC(Nc2cc(C(=O)NC[C@H](O)CN3CCc4cc(OCc5ocnc5C)ccc4C3)nc(C(C)C)n2)C1
TEST_SYSTEM: PRMT5 (Homo sapiens)
IC50: 0.5 to 5 µM
